So I've got a bunch of molecules here, and I need their relative growth values.
- Test system: Microbacterium 1 (Microbacterium arborescens)
- method summary: relative growth (AUC of 72 h growth curve relative to DMSO control, dAUC) (ratio); higher = more growth (less inhibition), active = hit call of the paper
- condition notes: 20 µM
Give the figure only, with no unit attached.

Qu. Entry O=C(O)COc1ccc(Cl)cc1Cl needs its relative growth filled in; supply it.
Ans. 1.02

Qu. Specify relative growth for CO/C=C(/C(=O)OC)c1ccccc1Oc1cc(Oc2ccccc2C#N)ncn1 and stop.
Ans. 0.975

Qu. Give relative growth for the following molecule: CCCSP(=O)(OCC)Oc1ccc(Br)cc1Cl (stereo not drawn)
Ans. 1.01

Qu. Give a short answer stating reported relative growth for O=C(NCCc1ncc(C(F)(F)F)cc1Cl)c1ccccc1C(F)(F)F .
Ans. 1.02

Qu. Please report the measured relative growth for N#Cc1nn(-c2c(Cl)cc(C(F)(F)F)cc2Cl)c(N)c1[S+]([O-])C(F)(F)F (stereo not drawn)
Ans. 1

Qu. For the molecule CC(C)N(C)S(=O)(=O)NC(=O)c1cc(-n2c(=O)cc(C(F)(F)F)n(C)c2=O)c(F)cc1Cl , give its reported relative growth.
Ans. 1

Qu. For the molecule Clc1ccc(C(c2ccc(Cl)cc2)C(Cl)(Cl)Cl)cc1 , give its measured relative growth value.
Ans. 0.973

Qu. Provide relative growth value for the following molecule: CO/N=C(/C(=O)OC)c1ccccc1CO/N=C(\C)c1cccc(C(F)(F)F)c1
Ans. 0.99

Qu. Please report relative growth for the following molecule: Cc1cc(C(C#N)c2ccc(Cl)cc2)c(Cl)cc1NC(=O)c1cc(I)cc(I)c1O (stereo not drawn)
Ans. 0.99

Qu. Please give the documented relative growth of CNC(=O)Oc1cccc2ccccc12
Ans. 1.02

Qu. Answer with reported relative growth of COP(N)(=O)SC (stereo not drawn)
Ans. 0.992

Qu. Answer with the recorded relative growth of N#Cc1c[nH]cc1-c1cccc2c1OC(F)(F)O2 only.
Ans. 1.01

Qu. Item OC(Cn1cncn1)(c1ccc(F)cc1)c1ccccc1F (stereo not drawn) : provide relative growth
Ans. 0.996

Qu. Could you please provide reported relative growth for CCOC(=O)CC(SP(=S)(OC)OC)C(=O)OCC (stereo not drawn) ? Thanks!
Ans. 1

Qu. Assign relative growth to the following record: COP(=O)(OC)OC=C(Cl)Cl
Ans. 0.975

Qu. Assign relative growth to the following record: O=C(O)c1nc(Cl)ccc1Cl
Ans. 0.977

Qu. For the molecule O=C1c2ccccc2C(=O)N1SC(Cl)(Cl)Cl , give its reported relative growth.
Ans. 1.02

Qu. Give reported relative growth value for CCCC1COC(Cn2cncn2)(c2ccc(Cl)cc2Cl)O1 (stereo not drawn)
Ans. 1.01
